- tgt: Neuronal acetylcholine receptor; alpha4/beta2 (Rattus norvegicus, UniProt P09483+P12390)
- Sequence (P09483 whole entry): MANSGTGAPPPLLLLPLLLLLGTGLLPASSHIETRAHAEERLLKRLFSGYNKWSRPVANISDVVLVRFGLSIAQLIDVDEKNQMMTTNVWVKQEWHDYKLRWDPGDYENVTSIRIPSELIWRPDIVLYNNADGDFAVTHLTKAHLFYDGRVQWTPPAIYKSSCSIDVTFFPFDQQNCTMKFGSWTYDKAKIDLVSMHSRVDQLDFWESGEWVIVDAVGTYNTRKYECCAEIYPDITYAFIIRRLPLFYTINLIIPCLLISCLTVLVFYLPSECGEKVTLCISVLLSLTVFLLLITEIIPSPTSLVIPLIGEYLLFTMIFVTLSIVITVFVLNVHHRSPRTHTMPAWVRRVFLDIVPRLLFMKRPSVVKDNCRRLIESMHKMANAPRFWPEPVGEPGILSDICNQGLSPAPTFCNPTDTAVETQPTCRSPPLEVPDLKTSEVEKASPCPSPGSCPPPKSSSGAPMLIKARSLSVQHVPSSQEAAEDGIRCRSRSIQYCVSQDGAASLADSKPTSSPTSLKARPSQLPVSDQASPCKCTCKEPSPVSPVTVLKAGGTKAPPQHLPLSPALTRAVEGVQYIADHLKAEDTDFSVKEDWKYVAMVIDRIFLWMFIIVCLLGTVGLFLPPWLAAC
- Sequence (P12390 whole entry): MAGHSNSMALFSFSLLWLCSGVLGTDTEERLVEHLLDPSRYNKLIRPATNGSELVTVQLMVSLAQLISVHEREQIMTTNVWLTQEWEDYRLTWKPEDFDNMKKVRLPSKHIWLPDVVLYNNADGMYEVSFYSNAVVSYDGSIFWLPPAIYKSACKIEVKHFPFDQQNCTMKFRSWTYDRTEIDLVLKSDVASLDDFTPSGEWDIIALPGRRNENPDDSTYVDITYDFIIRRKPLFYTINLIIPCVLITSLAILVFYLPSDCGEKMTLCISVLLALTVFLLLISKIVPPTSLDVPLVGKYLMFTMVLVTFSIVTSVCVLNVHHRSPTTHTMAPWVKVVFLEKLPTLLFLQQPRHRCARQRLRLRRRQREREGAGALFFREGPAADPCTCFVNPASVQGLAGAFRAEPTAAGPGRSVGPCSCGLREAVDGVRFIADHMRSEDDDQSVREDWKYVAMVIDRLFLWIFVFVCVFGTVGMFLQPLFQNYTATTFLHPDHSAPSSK
- protocol.details: Displacement of [3H]cytisine from rat alpha4beta2 nAChR in rat brain cell membrane
- Format: cell membranes
Kindly supply the reported pKi values for the records listed here.
Numbers only, as −log10 of the molar value.

{"compound": "O=c1c(C(F)(F)F)ccc2n1C[C@@H]1CNC[C@H]2C1", "pKi": 9.66}
{"compound": "O=c1cccc2n1C[C@@H]1C[C@@H]2CN(Br)C1", "pKi": 9.68}

Dear colleague, could you please provide pKi for the compounds listed below?
1. O=c1c(Br)ccc2n1C[C@@H]1CNC[C@H]2C1
2. O=c1cccc2n1C[C@@H]1CNC[C@H]2C1 [CYTISINICLINE]
3. O=c1cccc2n1C[C@@H]1C[C@@H]2CN(I)C1
4. Cc1ccc2n(c1=O)C[C@@H]1CNC[C@H]2C1
5. O=c1c(F)ccc2n1C[C@@H]1CNC[C@H]2C1

(A)
1. 9.94
2. 8.97
3. 9.78
4. 9.62
5. 8.19
